procedure details: pharmacokinetic study in plasma after i.v. and i.p. administration
Assay type: in vivo, mice
assay conditions: CD-1, mouse, plasma, ip; HBK-14 2.5 mg/kg, HBK-15 1.25 mg/kg; read-out: t 0.5 (terminal half-life)
# half-life per record follows
measure name: half-life (h)

[[record]]
item_smiles = "COc1ccccc1N1CCN(CCOCCOc2c(C)cccc2C)CC1.Cl"
measure_name = "half-life"
reported_value = 0.633

[[record]]
item_smiles = "COc1ccccc1N1CCN(CCOCCOc2c(C)cccc2Cl)CC1.Cl"
measure_name = "half-life"
reported_value = 1.4


----------
procedure details: pharmacokinetic study in plasma after i.v. and i.p. administration
Format: in vivo, mice
assay conditions: CD-1, mouse, plasma, iv; HBK-14 2.5 mg/kg, HBK-15 1.25 mg/kg; read-out: t 0.5 (terminal half-life)
Experimental: For pharmacokinetic study, HBK-14 and HBK-15 dissolved in saline were administered by an intravenous (i.v.) and intraperitoneal (i.p.) administration at a dose of 2.5 and 1.25 mg/kg, respectively. […] Pharmacokinetic parameters were calculated by a non-compartmental approach from the average concentration values, using Phoenix WinNonlin software (Certara, Princeton, NJ 08540, USA). First-order elimination rate constant (λ z) was calculated by linear regression of time vs log concentration. […]
measure name: half-life (h)

[[record]]
molecule = "COc1ccccc1N1CCN(CCOCCOc2c(C)cccc2Cl)CC1.Cl [HBK-15]"
measure_name = "half-life"
reported_value = 1.18

[[record]]
molecule = "COc1ccccc1N1CCN(CCOCCOc2c(C)cccc2C)CC1.Cl [HBK-14]"
measure_name = "half-life"
reported_value = 5.38

